# Test system: Alopecurus myosuroides (ALOMY)
# methodNotes: Example B post-emergence herbicidal greenhouse test
# Format: in vivo
# testSettings: 360 h, evaluated after 15 days, 100=total damage to plant, 0=no damage
quantityMeasured: pest or weed control at 125 g/ha (%)

compound: CCc1ccc(-c2ccc(Cl)c(C)c2)cc1C1=C(O)[C@H]2CC[C@H](C2)C1=O
assayTarget: Alopecurus myosuroides (ALOMY)
quantityMeasured: pest or weed control at 125 g/ha
obsValue: 30

compound: CCc1ccc(-c2ccc(F)c(Cl)c2)cc1C1=C(O)[C@H]2CC[C@H](C2)C1=O (single isomer, unassigned)
assayTarget: Alopecurus myosuroides (ALOMY)
quantityMeasured: pest or weed control at 125 g/ha
obsValue: 0

compound: CCc1ccc(-c2ccc(Cl)cc2F)cc1C1=C(O)[C@H]2CC[C@H](C2)C1=O (single isomer, unassigned)
assayTarget: Alopecurus myosuroides (ALOMY)
quantityMeasured: pest or weed control at 125 g/ha
obsValue: 80

compound: Cc1cc(-c2ccccc2)cc(C)c1C1=C(O)[C@H]2CC[C@H](C2)C1=O
assayTarget: Alopecurus myosuroides (ALOMY)
quantityMeasured: pest or weed control at 125 g/ha
obsValue: 20

compound: COc1ccc(Cl)cc1-c1ccc(C)c(C2=C(O)[C@H]3CC[C@H](C3)C2=O)c1 (single isomer, unassigned)
assayTarget: Alopecurus myosuroides (ALOMY)
quantityMeasured: pest or weed control at 125 g/ha
obsValue: 10

compound: Cc1ccc(-c2cc(Cl)cc(Cl)c2)cc1C1=C(O)[C@H]2CC[C@H](C2)C1=O (single isomer, unassigned)
assayTarget: Alopecurus myosuroides (ALOMY)
quantityMeasured: pest or weed control at 125 g/ha
obsValue: 20

compound: CCc1ccc(-c2ccc(Cl)cc2)cc1C1=C(O)[C@H]2CC[C@H](CC2)C1=O
assayTarget: Alopecurus myosuroides (ALOMY)
quantityMeasured: pest or weed control at 125 g/ha
obsValue: 90

compound: CCc1ccc(-c2ccc(Cl)c(C(F)(F)F)c2)cc1C1=C(O)[C@H]2CC[C@H](C2)C1=O (single isomer, unassigned)
assayTarget: Alopecurus myosuroides (ALOMY)
quantityMeasured: pest or weed control at 125 g/ha
obsValue: 70

compound: COc1cc(Cl)ccc1-c1ccc(C)c(C2=C(O)[C@H]3CC[C@H](C3)C2=O)c1 (single isomer, unassigned)
assayTarget: Alopecurus myosuroides (ALOMY)
quantityMeasured: pest or weed control at 125 g/ha
obsValue: 20

compound: Cc1cc(-c2ccc(Cl)cc2)ccc1C1=C(O)[C@H]2CC[C@H](C2)C1=O
assayTarget: Alopecurus myosuroides (ALOMY)
quantityMeasured: pest or weed control at 125 g/ha
obsValue: 60

compound: CCc1ccc(-c2ccccc2)cc1C1=C(O)[C@H]2CC[C@H](C2)C1=O (single isomer, unassigned)
assayTarget: Alopecurus myosuroides (ALOMY)
quantityMeasured: pest or weed control at 125 g/ha
obsValue: 10

compound: CCc1ccc(-c2ccc(Cl)c(F)c2)cc1C1=C(O)[C@H]2CC[C@H](C2)C1=O (single isomer, unassigned)
assayTarget: Alopecurus myosuroides (ALOMY)
quantityMeasured: pest or weed control at 125 g/ha
obsValue: 80

compound: Cc1ccc(-c2ccc(Cl)c(Cl)c2)cc1C1=C(O)[C@H]2CC[C@H](C2)C1=O (single isomer, unassigned)
assayTarget: Alopecurus myosuroides (ALOMY)
quantityMeasured: pest or weed control at 125 g/ha
obsValue: 10

compound: Cc1ccc(-c2ccc(Cl)cc2C)cc1C1=C(O)[C@H]2CC[C@H](C2)C1=O (single isomer, unassigned)
assayTarget: Alopecurus myosuroides (ALOMY)
quantityMeasured: pest or weed control at 125 g/ha
obsValue: 20
